target_or_system: T cell receptor alpha variable 4 (Homo sapiens)
Sequence (A0A0B4J268 whole entry): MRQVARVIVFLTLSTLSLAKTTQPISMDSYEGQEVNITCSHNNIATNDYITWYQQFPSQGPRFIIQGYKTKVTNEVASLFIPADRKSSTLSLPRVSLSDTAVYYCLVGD
For each record, write down the corresponding IC50.

Known results for compounds:
[[record]]
compound = "O=[N+]([O-])c1cc(Br)c(O)c(CN=Nc2nnnn2-c2cccc3ccccc23)c1"
measurement_type = "IC50"
result = "> 94.1 µM"

[[record]]
compound = "CC1=CC(/C=N/n2c(COc3ccccc3C)nc3ccccc3c2=O)C(=O)C([N+](=O)[O-])=C1 (configuration not stated)"
measurement_type = "IC50"
result = "> 94.1 µM"

[[record]]
compound = "CCOC(=O)c1c(C)[nH]c(C(=O)N/N=C/C2C=C([N+](=O)[O-])C=CC2=O)c1C (configuration not stated)"
measurement_type = "IC50"
result = "> 94.1 µM"


Please go through the list and note IC50 for each compound.
1. O=C(N/N=C/C1C=C([N+](=O)[O-])C=C([N+](=O)[O-])C1=O)/C(=C\c1cccs1)NC(=O)c1ccccc1 (configuration not stated)
2. O=C(N/N=C/C1C=C([N+](=O)[O-])C=CC1=O)c1cccc(N2CCCC2=O)c1 (configuration not stated)
3. O=C(N/N=C/C1C=C(Cl)C=C([N+](=O)[O-])C1=O)c1cccc(S(=O)(=O)N2CCOCC2)c1 (configuration not stated)
4. COC1=CC([N+](=O)[O-])=CC(/C=N/NC(=O)c2cc(C)nc3ccccc23)C1=O (configuration not stated)
5. COC1=CC(=O)C(/C=N/NC(=O)c2ccncc2)C(OC)=C1[N+](=O)[O-] (configuration not stated)
6. O=C1NC(=O)N(Cc2ccco2)C(=O)C1=CNNC(=O)c1ccccc1
7. Cc1c(NC(=S)NN=CC2C=C([N+](=O)[O-])C=CC2=O)c(=O)n(-c2ccccc2)n1C (configuration not stated)
8. CC1=CC(/C=N/n2c(CO[N-][C+](C)c3ccccc3)nc3ccccc3c2=O)C(=O)C([N+](=O)[O-])=C1 (configuration not stated)

A.
["> 94.1 µM", "> 94.1 µM", "> 94.1 µM", "> 94.1 µM", "> 94.1 µM", "> 94.2 µM", "> 94.1 µM", "> 94.1 µM"]

Please go through the list and note IC50 for each compound.
1. O=C(CNC(=O)c1ccccc1Br)N/N=C/C1C=C([N+](=O)[O-])C=C(Br)C1=O (configuration not stated)
2. O=C1C=CC([N+](=O)[O-])=CC1C=NNC(=S)Nc1ccc(Cl)cc1Cl (configuration not stated)
3. O=C1NC(=O)N(CCc2ccccc2)C(=O)C1=CNNC(=O)c1ccccc1O
4. CC1=CC([N+](=O)[O-])=CC(/C=N/n2c(C)nc3ccccc3c2=O)C1=O (configuration not stated)
5. CC1=CC([N+](=O)[O-])=CC(/C=N/NC(=O)C2COc3ccccc3O2)C1=O (configuration not stated)
6. O=C(O)c1ccccc1NS(=O)(=O)c1ccc(N=NCc2ccc(O)c(O)c2)c([N+](=O)[O-])c1
7. Cc1ccccc1C(=O)Nc1cccc(C(=O)N/N=C/C2C=C(Cl)C=C([N+](=O)[O-])C2=O)c1 (configuration not stated)
8. O=C1CC(=O)c2c(O)cc(O)c(O)c2C1=O [4,5,7,8-tetrahydroxy-1,2-naphthoquinone]

A.
1. > 94.1 µM
2. > 94.1 µM
3. > 94 µM
4. > 94 µM
5. > 94.2 µM
6. 32.5 µM
7. > 94.1 µM
8. > 94.1 µM

Please go through the list and note IC50 for each compound.
1. O=C1NC(=O)N(Cc2ccco2)C(=O)C1=CNNC(=O)c1ccccc1O
2. Oc1c(Br)cc(CC=Nc2cc(O)c3cccnc3c2O)cc1Br
3. O=Nc1[nH]c(=O)c(CC(=O)c2ccccc2)nc1NO
4. O=C(CSc1nc2ccccc2s1)N/N=C/C1C=C([N+](=O)[O-])C=CC1=O (configuration not stated)
5. O=C(N/N=C/C1C=C(Cl)C=C([N+](=O)[O-])C1=O)c1ccc2c(c1)OCO2 (configuration not stated)

A.
1: > 94 µM; 2: 18.8 µM; 3: > 94.2 µM; 4: > 94.1 µM; 5: > 94.1 µM

Please go through the list and note IC50 for each compound.
1. O=C(N/N=C/C1C=C([N+](=O)[O-])C=CC1=O)/C(=C\c1cccs1)NC(=O)c1ccccc1 (configuration not stated)
2. CCC(NNC(=O)c1ccccc1O)=C1C(=O)NC(=O)N(Cc2ccccc2)C1=O
3. C=CCN1C(=O)/C(=N\NC(=O)CNC(=O)/C=C/c2ccco2)c2ccccc21

A.
1. > 94.1 µM
2. > 94.1 µM
3. > 94.1 µM
